- TEST DESCRIPTION: Immunosuppressive activity in BALB/c mouse splenic T lymphocytes assessed as inhibition of Con A-induced cell proliferation after 72 hrs by MTT assay
- Format: functional, cell-based
QUANTITY MEASURED: IC50 (µg/mL)
Record the value in µg/mL, omitting the unit from your answer.

Consider the compound C=CC[C@@H]1/C=C(\C)C[C@H](C)C[C@H](OC)[C@H]2O[C@@](O)(C(=O)C(=O)N3CCCC[C@H]3C(=O)O[C@H](/C(C)=C/[C@@H]3CC[C@@H](O)[C@H](OC)C3)[C@H](C)[C@@H](O)CC1=O)[C@H](C)C[C@@H]2OC [TACROLIMUS ANHYDROUS] . State its measured IC50.
1.5e-05

Consider the compound `Cn1cnc([N+](=O)[O-])c1Sc1ncnc2[nH]cnc12` . State its measured IC50.
2.7

---

Can you tell me IC50 for the items I'm about to list?
- TEST DESCRIPTION: Immunosuppressive activity in BALB/c mouse splenic T lymphocytes assessed as inhibition of Con A-induced cell proliferation after 72 hrs by MTT assay
- Type: functional, cell-based
Record the value in µg/mL, omitting the unit from your answer.

Consider the compound CS[C@]1(Cc2c[nH]c3ccccc23)NC(=O)[C@](CO)(SC)N(C)C1=O [CHETOSEMINUDIN B] . State its measured IC50.
24

Consider the compound CN1C(=O)[C@]2(Cc3cn([C@]45C[C@@]67SS[C@@](CO)(C(=O)N6[C@H]4Nc4ccccc45)N(C)C7=O)c4ccccc34)SS[C@@]1(CO)C(=O)N2C [CHETOMIN] . State its measured IC50.
0.17

Consider the compound CN1C(=O)[C@]2(Cc3cn([C@]45C[C@@]67SSS[C@@](CO)(C(=O)N6[C@H]4Nc4ccccc45)N(C)C7=O)c4ccccc34)SS[C@@]1(CO)C(=O)N2C [CHETOSEMINUDIN A] . State its measured IC50.
0.18

This collection of values is drawn from ChEMBL document CHEMBL1146466.
